Each entry below carries its reported koff.
Target: T1, cynomolgus soluble urokinase plasminogen activator receptor (cynomolgus suPAR) (cynomolgus, UniProt Q9GK78 23-303, limits assumed)
T1 construct: also called cynomolgus uPAR; cynoPLAUR-His
T1 sequence (Q9GK78 23-303 limits assumed): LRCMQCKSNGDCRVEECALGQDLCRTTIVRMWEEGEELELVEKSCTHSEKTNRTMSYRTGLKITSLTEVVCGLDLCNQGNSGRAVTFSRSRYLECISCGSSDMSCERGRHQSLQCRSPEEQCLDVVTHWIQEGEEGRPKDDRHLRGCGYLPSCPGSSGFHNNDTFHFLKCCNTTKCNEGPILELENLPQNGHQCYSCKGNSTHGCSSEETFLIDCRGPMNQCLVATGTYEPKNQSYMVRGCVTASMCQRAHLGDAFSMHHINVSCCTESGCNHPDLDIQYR
Assay: off-rate screen of scFv clones (kdis), Octet BLI
Please state the figure in s⁻¹; there is no need to write the unit.

Here's what some known entries look like.
| BINDER | OBSERVED |
| --- | --- |
| suPAR_DB04_E05 (scFv, V domains shown, scFv clone from phage display) VH: QVQLVQSGAEVKKPGASVKVSCKASGFNIKDYYIHWVRQAPGQGLEWVGWIDPHSGGTNYAQKFQGRVTMTRDTSTSTVYMELSSLRSEDTAVYYCARGYDVDWFVYWGQGTLVTVSS VL: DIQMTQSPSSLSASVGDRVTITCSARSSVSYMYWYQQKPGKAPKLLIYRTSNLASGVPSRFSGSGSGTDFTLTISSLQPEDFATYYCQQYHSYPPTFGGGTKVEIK | 3.92e-07 |
| suPAR_DB04_C03 (scFv, V domains shown, scFv clone from phage display) VH: QVQLVQSGAEVKKPGASVKVSCKASGYTFTSYYMHWVRQAPGQGLEWMGWIDPENGSTIYDQKFQGRVTMTRDTSTSTVYMELSSLRSEDTAVYYCASGYDVDWFVYWGQGTLVTVSS VL: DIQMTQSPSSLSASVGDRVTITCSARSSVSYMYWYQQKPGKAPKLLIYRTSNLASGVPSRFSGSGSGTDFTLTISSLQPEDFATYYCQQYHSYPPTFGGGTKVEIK | 0.000158 |
| suPAR_DB04_G12 (scFv, V domains shown, scFv clone from phage display) VH: QVQLVQSGAEVKKPGASVKVSCKASGYTFSDYYMHWVRQAPGQGLEWMGWIDHENGNTSYAQKFQGRVTMTRDTSTSTVYMELSSLRSEDTAVYYCARGYDVDWFVYWGQGTLVTVSS VL: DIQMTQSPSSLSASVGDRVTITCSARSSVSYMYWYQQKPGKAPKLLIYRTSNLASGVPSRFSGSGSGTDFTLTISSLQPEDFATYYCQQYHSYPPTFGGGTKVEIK | 8.1e-05 |

Enquiry: # get_value(readout='koff', item= suPAR_DB04_G06 (scFv, V domains shown, scFv clone from phage display) VH: QVQLVQSGAEVKKPGASVKVSCKASGDTFTSYYVHWVRQAPGQGLEWMGWIDHENGNTIYDQKFQGRVTMTRDTSTSTVYMELSSLRSEDTAVYYCARGYDVDWFVYWGQGTLVTVSS VL: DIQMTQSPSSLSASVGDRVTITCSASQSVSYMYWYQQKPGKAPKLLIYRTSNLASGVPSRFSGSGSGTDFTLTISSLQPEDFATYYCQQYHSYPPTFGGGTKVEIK )
Return: 0.000208

Enquiry: Here is the next binder: suPAR_DB04_F03 (scFv, V domains shown, scFv clone from phage display) VH: QVQLVQSGAEVKKPGASVKVSCKASGYTIKDYYIHWVRQAPGQGLEWMGWIDPRSGDTNYGKNFQGRVTMTRDTSTSTVYMELSSLRSEDTAVYYCARGYDVDWFVYWGQGTLVTVSS VL: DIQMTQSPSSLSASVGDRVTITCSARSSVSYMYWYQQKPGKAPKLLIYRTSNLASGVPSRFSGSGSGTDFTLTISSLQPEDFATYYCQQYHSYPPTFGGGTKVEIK
Return: 0.000863

Enquiry: Here is the next binder: suPAR_DB04_D10 (scFv, V domains shown, scFv clone from phage display) VH: QVQLVQSGAEVKKPGASVKVSCKASGYTFTSYYMHWVRQAPGQGLEWMGWIDPEGGNTSYDQKFQGRVTMTRDTSTSTVYMELSSLRSEDTAVYYCATGYDVDWFVYWGQGTLVTVSS VL: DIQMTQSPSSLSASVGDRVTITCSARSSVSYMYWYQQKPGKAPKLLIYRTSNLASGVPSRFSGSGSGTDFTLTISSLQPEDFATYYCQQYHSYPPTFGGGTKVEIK
Return: 0.000402

Enquiry: Here is the next binder: suPAR_DB04_C09 (scFv, V domains shown, scFv clone from phage display) VH: QVQLVQSGAEVKKPGASVKVSCKASGYTFSTYYMQWVRQAPGQGLEWMGWIDPENGSTIYDQKFQGRVTMTRDTSTSTVYMELSSLRSEDTAVYYCARGYDVDWFVYWGQGTLVTVSS VL: DIQMTQSPSSLSASVGDRVTITCSARSSVSYMYWYQQKPGKAPKLLIYRASNLASGVPSRFSGSGSGTDFTLTISSLQPEDFATYYCQQYHSYPPTFGGGTKVEIK
Return: 0.00154

Enquiry: Here is the next binder: suPAR_DB04_G10 (scFv, V domains shown, scFv clone from phage display) VH: QVQLVQSGAEVKKPGASVKVSCKASGYTFTGYYMHWVRQAPGQGLEWMGWIDHENGNTIYDQKFQGRVTMTRDTSTSTVYMELSSLRSEDTAVYYCARGNDVDWFVYWGQGTLVTVSS VL: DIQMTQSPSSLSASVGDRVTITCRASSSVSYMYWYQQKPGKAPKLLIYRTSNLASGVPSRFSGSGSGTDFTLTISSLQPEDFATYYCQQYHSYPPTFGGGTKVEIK
Return: 0.000462

Enquiry: Here is the next binder: suPAR_DB04_F04 (scFv, V domains shown, scFv clone from phage display) VH: QVQLVQSGAEVKKPGASVKVSCKASGYTFTSYYMHWVRQAPGQGLEWMGWIDHENGNTSYDQKFQGRVTMTRDTSTSTVYMELSSLRSEDTAVYYCARGYDVDWFVYWGQGTLVTVSS VL: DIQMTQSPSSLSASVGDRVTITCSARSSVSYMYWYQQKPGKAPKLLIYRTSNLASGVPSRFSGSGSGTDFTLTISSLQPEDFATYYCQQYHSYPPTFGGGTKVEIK
Return: 0.000174

Enquiry: Here is the next binder: suPAR_DB04_F07 (scFv, V domains shown, scFv clone from phage display) VH: QVQLVQSGAEVKKPGASVKVSCKASGYTFTGYYVHWVRQAPGQGLEWMGWIDHENGNTIYDQKFQGRVTMTRDTSTSTVYMELSSLRSEDTAVYYCARGYDVDWFVYWGQGTLVTVSS VL: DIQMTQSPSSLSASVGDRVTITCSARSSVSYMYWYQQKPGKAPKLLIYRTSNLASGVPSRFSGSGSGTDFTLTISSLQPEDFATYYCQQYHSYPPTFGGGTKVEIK
Return: 3.33e-05
